Source: paper PMC6568020

Record form. Attribute: IC50. Fill in for each entry.
target_system: PlcR regulon (plcA promoter-lacZ fusion)
protocol: Competition studies of PapR7-derived peptides with endogenous PapR, β-galactosidase (lacZ reporter) assay
experimental_conditions: Bt A'Z, late-exponential phase (OD600 1.8 ± 0.1), competition with endogenous PapR, mean ± SEM; SEM; read-out: IC50, lacZ-based reporter assay
Where a SMILES comes first, the peptide text is derived from it. [ ]: non-standard residue; d: D form.
Answers are plain numbers, in nM.

See these solved cases before continuing.
# compound, IC50 [nM]
data = [
    ("CC(C)C[C@H](NC(=O)[C@H](CC(=O)O)NC(=O)[C@H](C)N)C(=O)N1CCC[C@H]1C(=O)N[C@@H](Cc1ccccc1)C(=O)N[C@@H](CCC(=O)O)C(=O)N[C@H](Cc1ccccc1)C(N)=O [PapR7-dF7, reference compound] (H-ADLPFE[dF]-NH2; N-terminus assumed)", 1220),
    ("CC(C)C[C@H](NC(=O)[C@H](CC(=O)O)NC(=O)[C@H](C)N)C(=O)N1CCC[C@H]1C(=O)N[C@@H](Cc1ccccc1)C(=O)N[C@H](CCC(=O)O)C(=O)N[C@H](Cc1ccccc1)C(N)=O [PapR7-dE6:dF7] (H-ADLPF[dE][dF]-NH2; N-terminus assumed)", 1680),
    ("CC(C)C[C@H](NC(=O)[C@H](CC(=O)O)NC(=O)[C@H](C)N)C(=O)N1CCC[C@H]1C(=O)N[C@@H](Cc1ccccc1)C(=O)N[C@H](CCC(=O)O)C(=O)N[C@@H](C)C(N)=O [PapR7-dE6:F7A] (H-ADLPF[dE]A-NH2; N-terminus assumed)", 2570),
]

Data request: # get_value(readout='IC50', item= CC(C)C[C@H](NC(=O)[C@H](CC(=O)O)NC(=O)[C@H](C)N)C(=O)N1CCC[C@H]1C(=O)N[C@@H](Cc1ccccc1)C(=O)N[C@H](CCC(=O)O)C(=O)N[C@@H](Cc1ccccc1)C(N)=O [PapR7-dE6, reference compound] (H-ADLPF[dE]F-NH2; N-terminus assumed) )
Data returned: 977
